- Tested on: LN-caP
- test method notes: SRB colorimetric cell growth inhibition assay, LN-caP
- experimental parameters: LN-caP cells; total growth inhibition; SRB, 48 hours exposure
Starred links: 1 amine or outer side, 2 acyl side, 3 side chain; linkers in the order of their positions; H or OH if unused. Positions of bridges follow the written chain, without caps; N, C: chain ends. Non-standard residues stand in square brackets, D forms with d. Residues, ends and D or L forms follow the SMILES beside them. Hexanoyl(3S-OH,4R-NH2,5-Me) = CC(C)[C@@H](N[*:1])[C@@H](O)CC(=O)[*:2]; NMe2Nal = CN[C@@H](Cc1ccc2ccccc2c1)C(=O)O; NMeY = CN[C@@H](Cc1ccc(O)cc1)C(=O)O; NMeF = CN[C@@H](Cc1ccccc1)C(=O)O; dNMeL = CN[C@H](CC(C)C)C(=O)O; Hiv = CC(C)[C@H](O)C(=O)O; Lac = C[C@H](O)C(=O)O

>  <compound>
COc1ccc(C[C@H]2C(=O)O[C@H](C)[C@H](NC(=O)[C@@H](CC(C)C)N(C)C(=O)[C@@H]3CCCN3C(=O)[C@H](C)O)C(=O)N[C@H](C(C)C)[C@@H](O)CC(=O)O[C@@H](C(C)C)C(=O)N[C@@H](CC(C)C)C(=O)N[C@@H](C)C(=O)N2C)cc1 [Compound 75, [N-Ala^4]-Tamandarin B] (H-[Lac]P[dNMeL]T[Hexanoyl(3S-OH,4R-NH2,5-Me)][Hiv]LA[NMeY](Me); ester 4-C)

>  <TGI>
2.97E−06 Molar

$$$$
>  <compound>
CC(C)C[C@@H]1NC(=O)[C@H](C(C)C)OC(=O)C[C@H](O)[C@@H](C(C)C)NC(=O)[C@@H](NC(=O)[C@@H](CC(C)C)N(C)C(=O)[C@@H]2CCCN2C(=O)[C@H](C)O)[C@@H](C)OC(=O)[C@H](Cc2ccccc2)N(C)C(=O)[C@@H]2CCCN2C1=O [Phe^5 tamandarin B, [N-MePhe^5]-Tamandarin B] (H-[Lac]P[dNMeL]T[Hexanoyl(3S-OH,4R-NH2,5-Me)][Hiv]LP[NMeF]; ester 4-C)

>  <TGI>
8.32E−09 Molar

$$$$
>  <compound>
COc1ccc(C[C@H]2C(=O)O[C@H](C)[C@H](NC(=O)[C@@H](CC(C)C)N(C)C(=O)[C@@H]3CCCN3C(=O)[C@H](C)O)C(=O)N[C@H](C(C)C)[C@@H](O)CC(=O)O[C@@H](C(C)C)C(=O)N[C@@H](CC(C)C)C(=O)N3CCC[C@H]3C(=O)N2C)cc1 [tamandarin B, Tamandarin B, reference compound] (H-[Lac]P[dNMeL]T[Hexanoyl(3S-OH,4R-NH2,5-Me)][Hiv]LP[NMeY](Me); ester 4-C)

>  <TGI>
2.13E−08 Molar

$$$$
>  <compound>
COc1ccc(C[C@H]2C(=O)OC[C@H](NC(=O)[C@@H](CC(C)C)N(C)C(=O)[C@@H]3CCCN3C(=O)[C@H](C)O)C(=O)N[C@H](C(C)C)[C@@H](O)CC(=O)O[C@@H](C(C)C)C(=O)N[C@@H](CC(C)C)C(=O)N3CCC[C@H]3C(=O)N2C)cc1 [Compound 62, [N-Ser^6]-Tamandarin B] (H-[Lac]P[dNMeL]S[Hexanoyl(3S-OH,4R-NH2,5-Me)][Hiv]LP[NMeY](Me); ester 4-C)

>  <TGI>
7.24E−09 Molar

$$$$
>  <compound>
CC(C)C[C@@H]1NC(=O)[C@H](C(C)C)OC(=O)C[C@H](O)[C@@H](C(C)C)NC(=O)[C@@H](NC(=O)[C@@H](CC(C)C)N(C)C(=O)[C@@H]2CCCN2C(=O)[C@H](C)O)[C@@H](C)OC(=O)[C@H](Cc2ccc3ccccc3c2)N(C)C(=O)[C@@H]2CCCN2C1=O [Compound 93, [2-Naphthylala^5]-Tamandarin B] (H-[Lac]P[dNMeL]T[Hexanoyl(3S-OH,4R-NH2,5-Me)][Hiv]LP[NMe2Nal]; ester 4-C)

>  <TGI>
4.33E−09 Molar

$$$$
